# Study system: MMP-3CD (catalytic domain of stromelysin-1) (Homo sapiens, UniProt P08254)
# Sequence (P08254 100-272 limits assumed): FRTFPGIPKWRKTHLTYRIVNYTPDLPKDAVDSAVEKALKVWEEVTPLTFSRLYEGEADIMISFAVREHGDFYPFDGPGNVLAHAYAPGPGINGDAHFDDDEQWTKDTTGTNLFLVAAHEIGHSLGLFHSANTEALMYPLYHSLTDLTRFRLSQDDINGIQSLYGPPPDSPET
pIC50: −log10 of the molar value.
Binary classification by pIC50, with 8 as an inclusive lower bound for TRUE; all other cases are FALSE.

Past entries and their recorded results:
>  <Compound>
CC1(C)SCCN(S(=O)(=O)c2ccc3oc4cc(Br)ccc4c3c2)[C@H]1C(=O)O [Example 9]

>  <Label>
FALSE

$$$$
>  <Compound>
CC1(C)SCCN(S(=O)(=O)c2ccc3oc4cc(Br)ccc4c3c2)[C@H]1C(=O)NO [Example 10]

>  <Label>
TRUE

$$$$
>  <Compound>
CC1(C)SCN(S(=O)(=O)c2ccc3c(c2)oc2ccccc23)[C@@H]1C(=O)O [Example 3]

>  <Label>
FALSE

$$$$

Challenge: Is pIC50 at least 8? Consider CC1(C)SCCN(S(=O)(=O)c2ccc3c(c2)Cc2ccccc2-3)[C@H]1C(=O)O [Example 5]
Response given: FALSE

Challenge: Textbook exercise: given the entry CC1(C)SCCN(S(=O)(=O)c2ccc3oc4cc([N+](=O)[O-])ccc4c3c2)[C@H]1C(=O)O [Example 13] , state whether its pIC50 is greater than or equal to 8.
Response given: FALSE

----------
This section lists pIC50 readings for MMP-9FL (full-length Gelatinase B) (Homo sapiens, UniProt P14780).
Just so you know, pIC50 here is -log10 of the concentration in molar units; reply with that number alone.

Some molecules with known pIC50 results, for comparison:
>  <Molecule>
CC1(C)SCCN(S(=O)(=O)c2ccc3c(c2)Cc2ccccc2-3)[C@H]1C(=O)O [Example 5]

>  <Study system>
MMP-9FL (full-length Gelatinase B) (Homo sapiens, UniProt P14780)
Sequence (P14780 94-707, species assumed): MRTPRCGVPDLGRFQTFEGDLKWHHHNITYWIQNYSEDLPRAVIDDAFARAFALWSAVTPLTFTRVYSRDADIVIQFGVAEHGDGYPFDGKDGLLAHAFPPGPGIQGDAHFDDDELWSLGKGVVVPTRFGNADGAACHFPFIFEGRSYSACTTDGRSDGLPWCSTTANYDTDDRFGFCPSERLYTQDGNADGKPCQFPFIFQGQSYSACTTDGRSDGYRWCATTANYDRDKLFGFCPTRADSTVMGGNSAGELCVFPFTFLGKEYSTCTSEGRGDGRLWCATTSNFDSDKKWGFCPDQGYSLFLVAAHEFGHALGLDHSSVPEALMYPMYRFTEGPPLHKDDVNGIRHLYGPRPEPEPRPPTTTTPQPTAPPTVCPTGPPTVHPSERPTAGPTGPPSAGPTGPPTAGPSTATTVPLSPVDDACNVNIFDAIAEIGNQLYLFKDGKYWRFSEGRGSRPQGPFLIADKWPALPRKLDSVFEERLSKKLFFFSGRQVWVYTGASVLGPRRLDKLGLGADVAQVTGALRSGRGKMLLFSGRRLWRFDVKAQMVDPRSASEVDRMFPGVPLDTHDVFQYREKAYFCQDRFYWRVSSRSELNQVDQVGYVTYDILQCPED

>  <pIC50>
4.00

$$$$
>  <Molecule>
CC1(C)SCCN(S(=O)(=O)c2ccc3c(c2)oc2ccccc23)[C@H]1C(=O)O [Example 1]

>  <Study system>
MMP-9FL (full-length Gelatinase B) (Homo sapiens, UniProt P14780)

>  <pIC50>
4.65

$$$$
>  <Molecule>
CC1(C)[C@H](C(=O)NO)N(S(=O)(=O)c2ccc3oc4ccccc4c3c2)CCS1(=O)=O [Example 15]

>  <Study system>
MMP-9FL (full-length Gelatinase B) (Homo sapiens, UniProt P14780)

>  <pIC50>
5.74

$$$$
>  <Molecule>
CC1(C)SCCN(S(=O)(=O)c2ccc3oc4ccccc4c3c2)[C@H]1C(=O)O [Example 7]

>  <Study system>
MMP-9FL (full-length Gelatinase B) (Homo sapiens, UniProt P14780)

>  <pIC50>
4.00

$$$$

Challenge: Find the measured pIC50 of CC1(C)SCCN(S(=O)(=O)c2ccc3oc4cc([N+](=O)[O-])ccc4c3c2)[C@H]1C(=O)O [Example 13] with MMP-9FL (full-length Gelatinase B) (Homo sapiens, UniProt P14780) as test system.
Response given: 4.00

Challenge: Find the measured pIC50 of CC1(C)SCN(S(=O)(=O)c2ccc3c(c2)oc2ccccc23)[C@@H]1C(=O)O [Example 3] with MMP-9FL (full-length Gelatinase B) (Homo sapiens, UniProt P14780) as test system.
Response given: 3.82

Challenge: State measured pIC50 of the molecule COC(=O)c1ccc2c(c1)oc1ccc(S(=O)(=O)N3CCSC(C)(C)[C@@H]3C(=O)O)cc12 [Example 11] with MMP-9FL (full-length Gelatinase B) (Homo sapiens, UniProt P14780).
Response given: 4.16

Challenge: Report the value of pIC50 obtained on MMP-9FL (full-length Gelatinase B) (Homo sapiens, UniProt P14780) for CC1(C)SCCN(S(=O)(=O)c2ccc3oc4cc(Br)ccc4c3c2)[C@H]1C(=O)O [Example 9] .
Response given: 4.19

----------
# Study system: MMP-2FL (full-length Gelatinase A) (Homo sapiens)
# Sequence (P08253 110-660): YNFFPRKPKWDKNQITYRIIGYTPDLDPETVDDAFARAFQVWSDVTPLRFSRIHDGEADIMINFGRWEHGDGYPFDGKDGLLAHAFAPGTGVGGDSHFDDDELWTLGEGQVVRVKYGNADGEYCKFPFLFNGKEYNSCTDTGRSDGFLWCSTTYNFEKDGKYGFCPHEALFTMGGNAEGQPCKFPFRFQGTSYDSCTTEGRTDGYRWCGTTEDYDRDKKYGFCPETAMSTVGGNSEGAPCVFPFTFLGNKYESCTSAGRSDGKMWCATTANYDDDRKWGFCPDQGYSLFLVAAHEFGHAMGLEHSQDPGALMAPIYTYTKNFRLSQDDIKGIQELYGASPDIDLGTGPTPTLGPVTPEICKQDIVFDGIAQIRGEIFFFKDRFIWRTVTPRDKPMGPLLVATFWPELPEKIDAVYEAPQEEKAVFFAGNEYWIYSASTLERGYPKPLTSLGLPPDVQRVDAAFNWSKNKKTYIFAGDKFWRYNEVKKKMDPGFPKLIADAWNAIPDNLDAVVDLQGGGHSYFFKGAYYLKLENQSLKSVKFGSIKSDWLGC
Recorded IC50 for the following compounds
Give the value, in units of nM, as a plain number.

Answered cases to consult:
>  <Compound>
CC1(C)SCCN(S(=O)(=O)c2ccc3c(c2)Cc2ccccc2-3)[C@H]1C(=O)NO [Example 6]

>  <Study system>
MMP-2FL (full-length Gelatinase A) (Homo sapiens)

>  <Measured endpoint>
IC50

>  <Recorded value>
24

$$$$
>  <Compound>
CC1(C)[C@H](C(=O)NO)N(S(=O)(=O)c2ccc3oc4ccccc4c3c2)CCS1(=O)=O [Example 15]

>  <Study system>
MMP-2FL (full-length Gelatinase A) (Homo sapiens)

>  <Measured endpoint>
IC50

>  <Recorded value>
250

$$$$
>  <Compound>
CC1(C)SCN(S(=O)(=O)c2ccc3c(c2)oc2ccccc23)[C@@H]1C(=O)O [Example 3]

>  <Study system>
MMP-2FL (full-length Gelatinase A) (Homo sapiens)

>  <Measured endpoint>
IC50

>  <Recorded value>
9500

$$$$

Challenge: Answer with IC50 of CC1(C)SCCN(S(=O)(=O)c2ccc3oc4cc([N+](=O)[O-])ccc4c3c2)[C@H]1C(=O)NO [Example 14] measured for MMP-2FL (full-length Gelatinase A) (Homo sapiens).
Response given: 22

Challenge: Give IC50; test system MMP-2FL (full-length Gelatinase A) (Homo sapiens); compound CC1(C)SCCN(S(=O)(=O)c2ccc3oc4ccccc4c3c2)[C@H]1C(=O)O [Example 7]
Response given: 3900

Challenge: Please tell me the measured IC50 for CC1(C)SCCN(S(=O)(=O)c2ccc3c(c2)oc2ccccc23)[C@H]1C(=O)O [Example 1] ; system: MMP-2FL (full-length Gelatinase A) (Homo sapiens).
Response given: 74

----------
Entries with their measured pIC50, system MMP-14CD (catalytic domain of MMP-14) (Homo sapiens, UniProt P50281):
Value format note: pIC50 is -log10 of concentration (mol/L); just state the number.

>  <Compound>
CC1(C)[C@H](C(=O)NO)N(S(=O)(=O)c2ccc3oc4ccccc4c3c2)CCS1(=O)=O [Example 15]

>  <Study system>
MMP-14CD (catalytic domain of MMP-14) (Homo sapiens, UniProt P50281)

>  <Recorded value>
7.01

$$$$

Challenge: Give the observed pIC50 of CC1(C)SCCN(S(=O)(=O)c2ccc3c(c2)oc2ccccc23)[C@H]1C(=O)NO [Example 2] for MMP-14CD (catalytic domain of MMP-14) (Homo sapiens, UniProt P50281).
Response given: 7.59

Challenge: Identify measured pIC50 obtained with MMP-14CD (catalytic domain of MMP-14) (Homo sapiens, UniProt P50281) for CC1(C)SCCN(S(=O)(=O)c2ccc3oc4cc([N+](=O)[O-])ccc4c3c2)[C@H]1C(=O)NO [Example 14] .
Response given: 7.62

Challenge: Please respond with reported pIC50 (system MMP-14CD (catalytic domain of MMP-14) (Homo sapiens, UniProt P50281)) for COC(=O)c1ccc2c(c1)oc1ccc(S(=O)(=O)N3CCSC(C)(C)[C@@H]3C(=O)NO)cc12 [Example 12] .
Response given: 7.02

Challenge: Tell me its pIC50 on MMP-14CD (catalytic domain of MMP-14) (Homo sapiens, UniProt P50281): CC1(C)SCCN(S(=O)(=O)c2ccc3c(c2)Cc2ccccc2-3)[C@H]1C(=O)O [Example 5]
Response given: 6.08

Challenge: Quote pIC50 with test system MMP-14CD (catalytic domain of MMP-14) (Homo sapiens, UniProt P50281) for CC1(C)SCCN(S(=O)(=O)c2ccc3oc4ccccc4c3c2)[C@H]1C(=O)O [Example 7]
Response given: 5.40

Challenge: With MMP-14CD (catalytic domain of MMP-14) (Homo sapiens, UniProt P50281) as the test system, provide measured pIC50 for this compound: CC1(C)SCCN(S(=O)(=O)c2ccc3oc4cc([N+](=O)[O-])ccc4c3c2)[C@H]1C(=O)O [Example 13]
Response given: 4.82

Challenge: Report pIC50 under test system MMP-14CD (catalytic domain of MMP-14) (Homo sapiens, UniProt P50281) for CC1(C)SCCN(S(=O)(=O)c2ccc3oc4cc(Br)ccc4c3c2)[C@H]1C(=O)O [Example 9] .
Response given: 5.42

Provenance of the data: patent US6559142B2
